Test system: Fibrinogen (Alexa647-labelled)
test.details: fibrinogen binders on compound microarrays, profiling panel, artefact control for SMM control-protein annotation, biochemical, small-molecule microarray, 635/667 nm fluorescence (AID 1131);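 also: z-score merges 667 nm fluorescence with per-spot signal-to-noise over triplicate slides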
reported.conditions: fibrinogen-A647 binding fluorescence, higher = more signal
measured.quantity: composite z-score

# molecule, measured.quantity, data.value
data = [
    ("C=CCN(Cc1ccccc1)C(=O)C(c1cccs1)N(CCOCCO)C(=O)/C=C\\C(=O)O (configuration not stated)", "composite z-score", -2.2),
    ("COCCn1c(C(=O)N2CCCC2)cc2c1C[C@H]1CN(C(=O)c3ccccc3)[C@@](Cc3ccc(F)cc3)(C(=O)OC)[C@@H]21", "composite z-score", 1.02),
    ("CCCCCC1=C2CNC(CCC)(C(=O)OC)C=C2C(C)C1=O (configuration not stated)", "composite z-score", -0.288),
    ("CN1C(=O)C2C=CC(C(O)Cc3ccccc3)N(Nc3ccccc3)C2C1=O (configuration not stated)", "composite z-score", 0.944),
    ("O=C1c2ccccc2[C@](Cc2ccccc2I)(C(=O)NC2CC2)[C@H](c2ccc(CO)cc2)N1C1CCCCC1", "composite z-score", 0.806),
    ("CC(=O)n1cc(C(O)C2C=CC3C(=O)N(C)C(=O)C3N2Nc2ccccc2)c2ccccc21 (configuration not stated)", "composite z-score", 0.898),
    ("COc1ccc([Si](C)(C)[C@H]2[C@H](CC(=O)N3CCC[C@H]3CO)O[C@@]3(C(=O)N(Cc4cccc(N5C(=O)c6cccc7cccc5c67)c4)c4ccccc43)[C@@H]2C)cc1", "composite z-score", 0.94),
    ("C=C(CCCC)C(=O)CC[C@H](OC(C)=O)c1cccc(OCCO)c1", "composite z-score", -1.29),
    ("Cc1ccc(S[C@]2(C(=O)NCCN3CCOCC3)CC(=O)N(Cc3ccccc3)[C@@H]2c2ccc(CO)cc2I)cc1", "composite z-score", -1.42),
    ("C[C@]1(C(=O)NC2CC2)c2ccccc2C(=O)N(Cc2cc(C(F)(F)F)cc(C(F)(F)F)c2)[C@H]1c1ccc(CO)cc1", "composite z-score", 0.657),
    ("O=C(NCc1ccccc1)[C@@H]1c2ccccc2C(=O)N(CC23CC4CC(CC(C4)C2)C3)[C@H]1c1ccc(CO)cc1", "composite z-score", 0.937),
    ("CN(C)C(=O)[C@]1(Cc2ccccc2N=[N+]=[N-])N=C(c2ccc(OCCCO)cc2)O[C@@H]1c1ccccc1", "composite z-score", 0.882),
    ("C=C(COC)/C(=C/C[C@@H](OC(C)=O)c1ccc(OCCO)cc1)c1cc(C(=O)OC)ccc1OC", "composite z-score", -0.367),
    ("CC(C)(C)OC(=O)CC[C@]1(C(=O)NCC(O)CO)COC(c2ccc(OCCCO)cc2)=N1 (some centres not stated)", "composite z-score", 0.936),
    ("CC(C)[C@@H](CO)NC(=O)[C@H]1[C@@H](c2ccccc2)N(c2ccccc2)O[C@@H]1C", "composite z-score", 0.0711),
    ("CN(C)CCCC[C@@H]1NC(=O)[C@H]2C[C@@H](C(=O)NCCCCCNC(=O)CS)[C@@H](c3cccc(OCCO)c3)N2C1=O", "composite z-score", 0.44),
    ("COc1ccc([C@H]2C[C@H]3C(Br)=C[C@@H]2C(=O)[C@]32CO2)cc1", "composite z-score", -0.325),
]

All figures here come from PubChem BioAssay.
